ASSAY DETAILS: Franz cell diffusion assay, transcutaneous permeation
Type: in vitro ADME, porcine
SETUP CONDITIONS: in the presence of the combined extracts
METRIC: concentration detected in Franz cell receptor (order of selective passage)

INSERT INTO measurements (smiles_input, value) VALUES
  ('CC[C@@H]1CN2CCc3c([nH]c4cccc(OC)c34)[C@@H]2C[C@@H]1/C(=C\OC)C(=O)OC', 'in lower percentage'),
  ('C=C[C@H]1CN2CCc3c([nH]c4cccc(OC)c34)[C@@H]2C[C@@H]1/C(=C\OC)C(=O)OC', 'in lower percentage');
